Target: T1, human TREM2 (Triggering Receptor Expressed on Myeloid cells-2), wild-type (human, UniProt Q9NZC2 19-230)
T1 sequence (looked up): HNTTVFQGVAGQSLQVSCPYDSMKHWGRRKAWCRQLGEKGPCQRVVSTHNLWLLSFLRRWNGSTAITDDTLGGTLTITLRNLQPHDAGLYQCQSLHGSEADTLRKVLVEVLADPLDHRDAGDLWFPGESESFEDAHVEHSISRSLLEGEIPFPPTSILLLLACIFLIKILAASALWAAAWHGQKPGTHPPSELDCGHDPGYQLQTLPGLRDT
Assay: cell-based or functional assay
increase of the level of mature TREM2 reference

Worked examples, 3 binders total:
The binder identified as antibody clone 7F12 (antibody, V domains shown) VH: EVQLVESGGGLVQPGRSLKLSCAASGFTFSNYGMAWVRQAPTKGLEWVTSISYSGGRTYYRDSVKGRFTISRDNAKSTLYLQMDSLRSEDSATYYCTPVGGGSTFDYWGQGVMVTVSS VL: DVVMTQTPPSLSVAIGQSVSISCKSSQSLVYSDGKTYLHWLLQSPGRSPKRLIYQVSNLGSGVPDRFSGTGSQKDFTLKISRVEAEDLGVYYCAQTTHFPPTFGSGTKLEIK registered its increase of the level of mature TREM2 at ≤ 5 fold

Entry antibody clone 13F4 (antibody, V domains shown) VH: EVHLVESGGGLVQPGRSLKLSCAASRFTFSNYGMAWVRQAPTKGLEWVASISNSGGRTFYRDSVKARFTISRDSAESTLYLQMDSLRSEDTATYYCTTIGGGSTFDYWGQGVMVTVSS VL: DVVMTQTPPSLSVAIGQSVSISCKSSQSLVYSDGKTYLHWLLQSPGRSPKRLIYQVSNLGSGVPDRFSGTGSQKDFTLKISRVEAEDLGVYYCAQTTHFPPTFGSGTKLEIK — recorded increase of the level of mature TREM2 = ≤ 5 fold

Record summary for antibody clone 14B3 (antibody, V domains shown) VH: EVQLVESGGGLVQPGRSLKLSCAASGFSFSNYGMAWVRQAPTKGLEWVASISNNGGRTFYRDSVKGRFTISRDNAKSTLYLQMHSLRSEDTATYYCTTIGGGSTFDYWGQGVMVTVSS VL: DVVMTQTPPSLSVAIGQSVSMSCKSSQSLVYSDGKTYLHWLLQSPGGSPKRLIYQVSNLGSGVPDRFSGTGSQKDFTLKISRVEAEDLGVYYCAQTTHFPPTFGSGTKLEIK : reported increase of the level of mature TREM2 = ≤ 5 fold

Next up:
# increase of the level of mature TREM2 of antibody clone 9D10 (antibody, V domains shown) VH: EVQLVESGGGLVQPGRSLKLSCAASGFTFSDYGMAWVRQAPTKGLEWVASISNSGGRTFYRDSVKGRFTVSRDNAKSTLYLQMDSLRSEGTATYYCTTIGGGSTFDYWGQGVMVTVSS VL: DVVMTQTPPSLSVAIGQSVSISCKSSQSLVYSDGKTYLHWLLQSPGRSPKRLIYQVSNLGSGVPDRFSGTGSQKDFTLKISRVEAEDLGVYYCAQTTHFPPTFGSGTKLEIK = ≤ 5 fold

Every entry's value here was drawn from patent US20240327512A1.
